# System: Sprague Dawley rats
# ASSAY PROTOCOL: Determination of in vivo insulin secretion in normal rats
# Set-up: species or system rat
# SETUP CONDITIONS: Table 3; fasted male Sprague Dawley rats, compound by cannula with glucose 1 g/kg, blood samples to 20 min
Non-standard residues stand in square brackets, D forms with d. No end group written: not given here. Nle = CCCC[C@H](N)C(=O)O; Ac5c = NC1(C(=O)O)CCCC1; Aib = CC(C)(N)C(=O)O
MEASURED PROPERTY: AUC (total insulin secretion)
Respond with the number and no other words.

These solved cases illustrate the format of a correct answer.
YAEGTFISDYSI[Aib][Nle]DKIHQQDFVNWLLAQKGKKNDWKHN[Ac5c]TQ-OH [Example 6, (Aib^13, Nle^14, A5c^40)hGIP(1-42)-OH] :: 180.31
YAEGTFISDYSI[Aib]MDKIHQQDFVNWLLAQKGKKNDWKHNITQD-NH2 [Example 5, (Aib^13, Asp^43)hGIP(1-43)-NH2] :: 196.17

Below: the item to evaluate.
Query string: // returns reported AUC (total insulin secretion) for input YAEGTFISDY[Ac5c]IAMDKIHQQDFVNWLLAQKGKKNDWKHN[Ac5c]TQ-OH [Example 2, (A5c^11, 40)hGIP(1-42)-OH]
Result string: 286.02

The measurements presented in this section are drawn from patent US9072703B2.
